# target-or-test-system: T1, human C5 R885C-mmh (human, UniProt P01031 19-1676)
# T1 construct: also called human C5 variant R885C
# method-notes: SPR, mAb captured via anti-hFc, 37C
Give t1/2 for every item shown.
A number alone suffices; assume min.

Incoming: What does the record list as t1/2 for H4H12168P (antibody, human IgG4, V domains shown, Human IgG4 Fc with S108P hinge mutation (H4H)) VH: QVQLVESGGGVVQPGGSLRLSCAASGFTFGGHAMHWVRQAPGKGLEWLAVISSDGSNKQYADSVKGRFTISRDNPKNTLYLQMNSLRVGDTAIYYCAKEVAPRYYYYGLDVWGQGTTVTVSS VL: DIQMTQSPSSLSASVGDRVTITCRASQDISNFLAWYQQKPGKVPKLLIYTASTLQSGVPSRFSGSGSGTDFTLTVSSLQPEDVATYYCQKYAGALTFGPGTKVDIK ?
Outgoing: 20

Incoming: And then H4H12171P (antibody, human IgG4, V domains shown, Human IgG4 Fc with S108P hinge mutation (H4H)) VH: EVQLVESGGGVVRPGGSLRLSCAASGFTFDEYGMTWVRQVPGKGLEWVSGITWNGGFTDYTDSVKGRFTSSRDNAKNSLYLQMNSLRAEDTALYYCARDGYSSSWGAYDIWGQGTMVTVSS VL: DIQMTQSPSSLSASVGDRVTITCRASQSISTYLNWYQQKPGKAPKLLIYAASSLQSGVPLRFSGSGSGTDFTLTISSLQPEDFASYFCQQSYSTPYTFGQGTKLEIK , what is it?
Outgoing: 12

Incoming: Would you kindly repeat that for H4H12167P (antibody, human IgG4, V domains shown, Human IgG4 Fc with S108P hinge mutation (H4H)) VH: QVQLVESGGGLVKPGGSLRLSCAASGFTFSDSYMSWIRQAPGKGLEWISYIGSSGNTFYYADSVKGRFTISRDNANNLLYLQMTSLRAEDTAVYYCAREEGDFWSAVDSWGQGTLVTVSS VL: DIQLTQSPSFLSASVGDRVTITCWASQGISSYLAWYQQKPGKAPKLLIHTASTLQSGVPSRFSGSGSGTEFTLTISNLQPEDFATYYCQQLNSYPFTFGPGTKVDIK ?
Outgoing: 5

Incoming: Do the same for H4H12163P (antibody, human IgG4, V domains shown, Human IgG4 Fc with S108P hinge mutation (H4H)) VH: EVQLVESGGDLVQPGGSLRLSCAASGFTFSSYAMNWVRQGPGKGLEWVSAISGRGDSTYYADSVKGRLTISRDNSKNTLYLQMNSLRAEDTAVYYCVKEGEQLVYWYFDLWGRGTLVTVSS VL: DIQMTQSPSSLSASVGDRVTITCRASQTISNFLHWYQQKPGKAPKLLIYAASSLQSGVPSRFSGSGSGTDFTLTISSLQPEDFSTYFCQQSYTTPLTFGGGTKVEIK please
Outgoing: 4

Incoming: H4H12169P (antibody, human IgG4, V domains shown, Human IgG4 Fc with S108P hinge mutation (H4H)) VH: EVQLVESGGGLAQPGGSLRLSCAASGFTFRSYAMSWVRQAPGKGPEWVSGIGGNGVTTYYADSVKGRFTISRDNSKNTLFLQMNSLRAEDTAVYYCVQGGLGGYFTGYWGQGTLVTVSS VL: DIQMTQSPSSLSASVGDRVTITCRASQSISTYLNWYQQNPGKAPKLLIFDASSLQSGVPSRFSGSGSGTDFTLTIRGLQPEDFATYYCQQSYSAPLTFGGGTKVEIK , same question.
Outgoing: 16

Incoming: Do the same for H4H11683N (antibody, V domains shown, also called H2M11683N) VH: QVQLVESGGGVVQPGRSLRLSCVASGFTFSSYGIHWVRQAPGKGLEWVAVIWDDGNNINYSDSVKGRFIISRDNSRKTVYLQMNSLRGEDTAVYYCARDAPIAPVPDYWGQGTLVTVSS VL: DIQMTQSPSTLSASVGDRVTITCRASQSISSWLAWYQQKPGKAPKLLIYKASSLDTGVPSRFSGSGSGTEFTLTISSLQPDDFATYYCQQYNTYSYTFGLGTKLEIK please
Outgoing: 8

Incoming: For H4H12161P (antibody, human IgG4, V domains shown, Human IgG4 Fc with S108P hinge mutation (H4H)) VH: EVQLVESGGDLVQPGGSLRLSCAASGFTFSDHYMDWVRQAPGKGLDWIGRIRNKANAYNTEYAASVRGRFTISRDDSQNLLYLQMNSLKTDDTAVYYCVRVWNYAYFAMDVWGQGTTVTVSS VL: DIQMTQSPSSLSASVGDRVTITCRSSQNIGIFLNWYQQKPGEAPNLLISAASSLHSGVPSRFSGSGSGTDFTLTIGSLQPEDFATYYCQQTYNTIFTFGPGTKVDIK then?
Outgoing: 13
